# test_details: Constant-force (CF) single-molecule optical tweezers folding assay of guanine-aptamer RNAs in guanine buffer
# Format: physicochemical
# assay_setup: transition C′B (L2-L3 folding); F 8.5 pN; 3 mM Mg^2+, 200 nM G
# Method: The aptamer folding was monitored in real time using a constant-force (CF) assay. Equilibrium sampling techniques provide unprecedented insights into the rare events in the course of folding that are otherwise difficult to identify. […] A miniaturized dual beam optical tweezers instrument was constructed with a sampling rate of 0.4, 4 and 40 kHz. […] The trap stiffness, K is measured at 0.04-0.06 pN/nm from the power spectrum analysis of the Brownian motion of the trapped bead. […]
endpoint: Transition distance ΔX (nm)
Report the value in nm with no unit label.

get_value(item= m8: m8 mutant guanine sensing aptamer RNA (SEQ ID NO: 9); A19G and U77C in the P1 hairpin (nucleic acid, RNA, backbone and methylation of C not given here, A19G and U77C in the P1 hairpin) CACUCGUAUAAUCGCGUGGAUAUGGCACGCAAGUUUCUACCGGGCACCGUAAAUGUCCGACUACGGGUG , readout=Transition distance ΔX) returns 3.6

get_value(item= m4: m4 mutant guanine sensing aptamer RNA (SEQ ID NO: 5); A59G/U67C in the P3 hairpin (nucleic acid, RNA, backbone and methylation of C not given here, A59G/U67C in the P3 hairpin) CACUCAUAUAAUCGCGUGGAUAUGGCACGCAAGUUUCUACCGGGCGCCGUAAACGUCCGACUAUGGGUG , readout=Transition distance ΔX) returns 3.4

get_value(item= wt: 69-nucleotide full-length wild-type guanine sensing aptamer RNA sequence from xpt-pbuX operon in B. subtilis (SEQ ID NO: 1) (nucleic acid, RNA, backbone and methylation of C not given here) CACUCAUAUAAUCGCGUGGAUAUGGCACGCAAGUUUCUACCGGGCACCGUAAAUGUCCGACUAUGGGUG , readout=Transition distance ΔX) returns 3.4

get_value(item= m6: m6 mutant guanine sensing aptamer RNA (SEQ ID NO: 7); U67A, shorter P3 hairpin and larger L3 loop (nucleic acid, RNA, backbone and methylation of C not given here, U67A, shorter P3 hairpin and larger L3 loop) CACUCAUAUAAUCGCGUGGAUAUGGCACGCAAGUUUCUACCGGGCACCGUAAAAGUCCGACUAUGGGUG , readout=Transition distance ΔX) returns 3.5
